# Assay target: catalytic domain of human MMP9 (human, UniProt P14780 107-444, limits assumed)
# Sequence (P14780 107-444 limits assumed): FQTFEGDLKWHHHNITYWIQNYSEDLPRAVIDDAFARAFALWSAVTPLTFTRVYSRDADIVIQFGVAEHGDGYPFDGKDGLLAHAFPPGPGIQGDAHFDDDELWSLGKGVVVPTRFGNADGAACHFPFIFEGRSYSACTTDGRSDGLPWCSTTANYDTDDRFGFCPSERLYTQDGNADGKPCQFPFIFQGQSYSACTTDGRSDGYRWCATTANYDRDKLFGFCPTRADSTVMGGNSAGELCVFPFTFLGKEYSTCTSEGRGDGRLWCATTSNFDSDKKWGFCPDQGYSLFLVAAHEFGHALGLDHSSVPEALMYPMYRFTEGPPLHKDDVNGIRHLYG
# Assay overview: cell-based or functional assay
Response key: Criterion met means MMP9 Inhibition Shift >= 20 fold; Criterion not met means MMP9 Inhibition Shift < 20 fold.

**Q:** Please tell me: is the binder TIMP-3 mutein K45N, V47T, F57N, K94N, E96T, R138T, G173T (other) CTCSPSHPQDAFCNSDIVIRANVTGKKLVKEGPNGTLVYTIKQMKMYRGFTKMPHVQYIHTEASESLCGLNLTVNKYQYLLTGRVYDGKMYTGLCNFVERWDQLTLSQRKGLNYTYHLGCNCKIKSCYYLPCFVTSKNECLWTDMLSNFTYPGYQSKHYACIRQKGGYCSWYRGWAPPDKSIINATDP at or over 20 fold in terms of MMP9 Inhibition Shift?
**A:** Criterion not met

**Q:** Please tell me: is the binder TIMP-3 mutein K45S, F57N, K94N, E96T, D110N, K112T, R138T, G173T (other) CTCSPSHPQDAFCNSDIVIRASVVGKKLVKEGPNGTLVYTIKQMKMYRGFTKMPHVQYIHTEASESLCGLNLTVNKYQYLLTGRVYNGTMYTGLCNFVERWDQLTLSQRKGLNYTYHLGCNCKIKSCYYLPCFVTSKNECLWTDMLSNFTYPGYQSKHYACIRQKGGYCSWYRGWAPPDKSIINATDP at or over 20 fold in terms of MMP9 Inhibition Shift?
**A:** Criterion met

**Q:** Please tell me: is the binder TIMP-3 mutein K45S, F57N, T63N, K65T, K94N, E96T, G173T (other) CTCSPSHPQDAFCNSDIVIRASVVGKKLVKEGPNGTLVYNITQMKMYRGFTKMPHVQYIHTEASESLCGLNLTVNKYQYLLTGRVYDGKMYTGLCNFVERWDQLTLSQRKGLNYRYHLGCNCKIKSCYYLPCFVTSKNECLWTDMLSNFTYPGYQSKHYACIRQKGGYCSWYRGWAPPDKSIINATDP at or over 20 fold in terms of MMP9 Inhibition Shift?
**A:** Criterion not met

**Q:** Please tell me: is the binder TIMP-3 mutein K45S, F57N, H78N, Q80T, K94N, E96T, R138T, G173T (other) CTCSPSHPQDAFCNSDIVIRASVVGKKLVKEGPNGTLVYTIKQMKMYRGFTKMPNVTYIHTEASESLCGLNLTVNKYQYLLTGRVYDGKMYTGLCNFVERWDQLTLSQRKGLNYTYHLGCNCKIKSCYYLPCFVTSKNECLWTDMLSNFTYPGYQSKHYACIRQKGGYCSWYRGWAPPDKSIINATDP at or over 20 fold in terms of MMP9 Inhibition Shift?
**A:** Criterion not met

**Q:** Please tell me: is the binder TIMP-3 mutein K45E, F57N, Q126N, R138T, G173T (other) CTCSPSHPQDAFCNSDIVIRAEVVGKKLVKEGPNGTLVYTIKQMKMYRGFTKMPHVQYIHTEASESLCGLKLEVNKYQYLLTGRVYDGKMYTGLCNFVERWDNLTLSQRKGLNYTYHLGCNCKIKSCYYLPCFVTSKNECLWTDMLSNFTYPGYQSKHYACIRQKGGYCSWYRGWAPPDKSIINATDP at or over 20 fold in terms of MMP9 Inhibition Shift?
**A:** Criterion not met

**Q:** Please tell me: is the binder TIMP-3 mutein K45N, V47T, F57N, V97N, K99T, R138T, G173T (other) CTCSPSHPQDAFCNSDIVIRANVTGKKLVKEGPNGTLVYTIKQMKMYRGFTKMPHVQYIHTEASESLCGLKLENNTYQYLLTGRVYDGKMYTGLCNFVERWDQLTLSQRKGLNYTYHLGCNCKIKSCYYLPCFVTSKNECLWTDMLSNFTYPGYQSKHYACIRQKGGYCSWYRGWAPPDKSIINATDP at or over 20 fold in terms of MMP9 Inhibition Shift?
**A:** Criterion not met
